OBSERVABLE: melting point

Recorded melting point, per entry:
# MOLECULE, RESULT
data = [
    ("Clc1ccc(-c2cnc3cc4ccccc4cc3n2)cc1 [Compound 3, 2-(4-Chlorophenyl)benzo[g]quinoxaline]", "168 to 170 °C"),
    ("CC(=O)N1CC(c2ccc(Cl)cc2)=Nc2c1c(Br)c1ccccc1c2Br", "205 to 207 °C"),
]

Here's the next entry for you.
[ask] Please give the documented melting point of CC(=O)N1C=C(c2ccc(Cl)cc2)Nc2cc3ccccc3cc21
[reply] 171 to 173 °C

----------
# TGT: UniProt:Q02880
# Sequence (Q02880 whole entry): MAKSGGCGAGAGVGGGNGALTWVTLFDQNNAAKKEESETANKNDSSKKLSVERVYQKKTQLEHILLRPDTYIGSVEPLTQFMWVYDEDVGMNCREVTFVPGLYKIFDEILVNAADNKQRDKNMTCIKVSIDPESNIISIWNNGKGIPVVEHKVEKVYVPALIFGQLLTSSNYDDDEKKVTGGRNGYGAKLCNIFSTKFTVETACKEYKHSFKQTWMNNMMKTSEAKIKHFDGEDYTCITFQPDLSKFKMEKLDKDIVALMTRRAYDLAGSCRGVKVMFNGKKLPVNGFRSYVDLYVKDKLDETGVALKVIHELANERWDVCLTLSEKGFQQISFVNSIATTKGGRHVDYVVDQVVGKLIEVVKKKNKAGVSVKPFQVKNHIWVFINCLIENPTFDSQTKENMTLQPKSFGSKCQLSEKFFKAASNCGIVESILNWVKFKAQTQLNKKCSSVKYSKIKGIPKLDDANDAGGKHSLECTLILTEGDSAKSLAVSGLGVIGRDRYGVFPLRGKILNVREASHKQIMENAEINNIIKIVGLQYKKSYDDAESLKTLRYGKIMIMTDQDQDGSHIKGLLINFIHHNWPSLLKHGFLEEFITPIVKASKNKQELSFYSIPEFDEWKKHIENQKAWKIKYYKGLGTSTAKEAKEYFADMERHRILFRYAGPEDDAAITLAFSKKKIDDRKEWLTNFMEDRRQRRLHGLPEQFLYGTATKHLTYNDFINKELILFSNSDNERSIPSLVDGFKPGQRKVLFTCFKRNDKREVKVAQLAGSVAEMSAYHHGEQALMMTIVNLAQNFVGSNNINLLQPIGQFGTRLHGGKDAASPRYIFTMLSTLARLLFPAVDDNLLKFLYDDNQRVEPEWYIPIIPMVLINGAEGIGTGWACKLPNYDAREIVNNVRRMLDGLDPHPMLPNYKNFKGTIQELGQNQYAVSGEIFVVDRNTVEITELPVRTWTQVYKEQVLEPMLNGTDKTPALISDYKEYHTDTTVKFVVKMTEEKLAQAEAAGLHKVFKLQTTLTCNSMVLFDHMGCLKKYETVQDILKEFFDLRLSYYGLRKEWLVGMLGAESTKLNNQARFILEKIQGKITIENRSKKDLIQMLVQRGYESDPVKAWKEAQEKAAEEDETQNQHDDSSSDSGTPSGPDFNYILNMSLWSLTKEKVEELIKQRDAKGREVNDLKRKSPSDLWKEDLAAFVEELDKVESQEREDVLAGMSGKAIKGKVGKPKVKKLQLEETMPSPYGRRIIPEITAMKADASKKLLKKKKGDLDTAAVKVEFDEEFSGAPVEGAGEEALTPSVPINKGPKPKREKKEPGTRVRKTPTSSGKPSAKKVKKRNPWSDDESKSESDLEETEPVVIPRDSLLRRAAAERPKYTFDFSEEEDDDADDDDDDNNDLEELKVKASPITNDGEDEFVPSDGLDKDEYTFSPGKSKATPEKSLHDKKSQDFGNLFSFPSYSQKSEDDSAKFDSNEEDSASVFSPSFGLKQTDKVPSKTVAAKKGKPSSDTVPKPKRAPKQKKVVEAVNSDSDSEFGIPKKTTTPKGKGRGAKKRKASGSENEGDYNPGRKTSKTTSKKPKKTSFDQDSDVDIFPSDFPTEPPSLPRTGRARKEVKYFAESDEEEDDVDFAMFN
OBSERVABLE: IC50 (µM)
Numbers only; they are read as µM.

[ask] Provide UniProt:Q02880 IC50 reading for COc1cccc2c1C(=O)c1c(O)c3c(c(O)c1C2=O)C[C@@](O)(C(=O)CO)C[C@@H]3O[C@H]1C[C@H](N)[C@H](O)[C@H](C)O1 [Dox, Doxorubicin, reference compound] .
[reply] 3.31
